tested on: Bipolaria maydis; assay: organism not typed; assay type: cell-based; settings: read-out: Bactericidal activity (%) Bipolaria maydis
inhibition at 50 mg/kg: recorded values
Provide the reading as a plain figure in %.

Below, each entry is followed by its recorded inhibition at 50 mg/kg result.
• C[C@@H]1N[C@H](C(=O)NC2CCCCC2)Cc2c1[nH]c1ccccc21 [Ib-17] = 45.5
• CCCCNC(=O)[C@@H]1Cc2c([nH]c3ccccc23)[C@H](C)N1 [Ib-16] = 18.2

# return recorded inhibition at 50 mg/kg for entry C[C@@H]1N[C@H](C(=O)NN)Cc2c1[nH]c1ccccc21 [Ib-15] 24

Look up and state reported inhibition at 50 mg/kg for COc1ccc2c(c1)[nH]c1c(C)nccc12 [Harmine] 31.6

Give the value of inhibition at 50 mg/kg reported for the following: O=C(O)[C@@H]1Cc2c([nH]c3ccccc23)[C@H](c2ccccc2)N1 [Ib-5] 22.7

Could you please provide reported inhibition at 50 mg/kg for C[C@@H]1N[C@H](C(=O)NCN(C)C)Cc2c1[nH]c1ccccc21 [Ib-19] ? Thanks! 24

Check the records and state inhibition at 50 mg/kg for C[C@@H]1N[C@H](C(=O)NNC(=O)c2cccc3nnsc23)Cc2c1[nH]c1ccccc21 [Id-1] 36

# return recorded inhibition at 50 mg/kg for entry Cc1nccc2c1[nH]c1ccc([N+](=O)[O-])cc12 [Ia-3] 31.6

Return inhibition at 50 mg/kg (reported value) for this molecule: C[C@@H]1N[C@H](C(=O)N/N=C/c2ccccc2)Cc2c1[nH]c1ccccc21 [Ic-1] 60

Kindly indicate its recorded inhibition at 50 mg/kg. Item: Cc1nccc2c1[nH]c1cc(O)ccc12 [Harmol] 31.8

---

tested on: Alternaria solani; assay: Fungicidal (bactericidal) activity in vitro, PDA colony diameter; assay type: cell-based; conditions: Alternaria solani, 96 h; 50 mg/kg
Listed here are molecules together with their documented inhibition of growth at 50 mg/kg.
Respond numerically; units are % and should not be typed.

Previously resolved entries follow.
* Cc1nccc2c1[nH]c1ccc([N+](=O)[O-])cc12 | 33.3
* O=C(O)[C@@H]1Cc2c([nH]c3ccccc23)[C@H](c2ccccc2)N1 | 15.8
* COc1ccc2c(c1)[nH]c1c(C)nccc12 | 83.3

// switching to the query molecule
Given the molecule `C[C@@H]1N[C@H](C(=O)O)Cc2c1[nH]c1ccccc21` , write its reported inhibition of growth at 50 mg/kg. 21.1

---

system: armyworms; type: in vivo; settings: concentration 600 mg/kg
parameter-measured: Armyworm Mortality (%)
Remember to follow the number with its unit.

• Cc1nnsc1C(=O)NNC(=O)[C@@H]1Cc2c([nH]c3ccccc23)[C@H](C)N1 = 40%
• CC(=O)Oc1ccc2c(c1)[nH]c1c(C)nccc12 = 35%
• CC1=NCCc2c1[nH]c1ccccc21 = 20%
• O=C(O)[C@@H]1Cc2c([nH]c3ccccc23)[C@H](c2cccnc2)N1 = 45%

Please supply the value of reported Armyworm Mortality (%) for the item `C/C=C/C=NNC(=O)[C@@H]1Cc2c([nH]c3ccccc23)[C@H](C)N1` 40%

---

test system: Fusarium graminearumt; assay: microbe, parasite or virus in culture; assay type: cell-based; details: 50 mg/kg
parameter-measured: Bactericidal activity (%) Fusarium graminearumt
Enter your answer as a number in %; do not include the unit.

# return Bactericidal activity (%) Fusarium graminearumt for CCCC=NNC(=O)[C@@H]1Cc2c([nH]c3ccccc23)[C@H](C)N1 [Ic-23] , test system: Fusarium graminearumt 6.9

Specify Bactericidal activity (%) Fusarium graminearumt for C[C@@H]1N[C@H](C(=O)NN=Cc2ncc[nH]2)Cc2c1[nH]c1ccccc21 [Ic-21] , system Fusarium graminearumt. 27.6

For Fusarium graminearumt, give Bactericidal activity (%) Fusarium graminearumt of the listed compound: O=C(O)/C=C/c1cc2c([nH]c3ccccc32)c(-c2cccs2)n1 [Ia-15] 78.6
